Please provide measured Percent Effect for the entries that follow.
# System: Wolbachia pipientis
# method: Anti-Wolbachia Cell-Based Screen
# Format: functional
# Parameters: scale not given: in the data most compounds retested in dose-response had high values
# testConditions: 5 µM
Among all 48,000 compounds or so, about 13,000 (27%) showed an effect of 50% or more. This is one part of the list.

Data request: Find the recorded Percent Effect belonging to CCn1nc(CC(C)C)cc1C(=O)N1CCCOC(CN2CCCC2)C1 (configuration not stated) and report it.
Data returned: 12.35%

Data request: Please give the measured Percent Effect for this compound: Cc1nnc2n1CCN(CCS(=O)(=O)c1ccccc1)C2
Data returned: 0.264%

Data request: What does the data say about its Percent Effect? Entry: CNC(=O)[C@@H](c1ccccc1F)N1CCC[C@H]1C(=O)NC1CCCC1.Cl
Data returned: 0.555%

Data request: # input compound: COc1cc(NCCNC(=O)c2cscc2C)cc(OC)c1 ; wanted: its Percent Effect
Data returned: -3.159%

Data request: What Percent Effect value was documented for this compound, O=C(O)C(F)(F)F.O=C1CC[C@H]2[C@H](CCN2C(=O)C2CCOCC2)N1Cc1ccncc1 ?
Data returned: 25.13%

Data request: Could you share which Percent Effect value was measured for COc1ccc(C(=O)NCCNC(=O)c2cncnc2C)cc1 ?
Data returned: -1.399%

Data request: Return reported Percent Effect; argument: CCC(CNS(C)(=O)=O)Oc1ccccc1C (configuration not stated)
Data returned: 8.016%

Data request: So what does the record say about Percent Effect for CN(Cc1nccn1C)C(=O)c1cccc(CCC(C)(C)O)c1 ?
Data returned: -1.939%

Data request: Reported Percent Effect for CCn1c(CN(C)C(=O)c2ccc(O)nc2)nc2ccccc21 : what is it?
Data returned: -29.68%

Data request: For the compound shown here, Cc1ncsc1CCN(C)Cc1cc2n(n1)CCN(S(C)(=O)=O)C2 , give the reported Percent Effect.
Data returned: 0.3281%

Data request: Which Percent Effect is reported for this compound? CC(=O)N1CCn2c(COCc3csc(C)n3)cnc2C1C (configuration not stated)
Data returned: 17.55%

Data request: // query Percent Effect value for entry Cc1ccc(C(=O)N(C)Cc2nccn2CC(F)(F)F)cn1
Data returned: 108.9%

Data request: Tell me the measured Percent Effect of C[C@@H]1CN(c2ccc(Cl)cn2)C[C@@]1(O)C1CC1 , please.
Data returned: 109.5%

Data request: For Cc1nc(CC(=O)N2CCC3(CC2)CC(=O)N(CC2CCCO2)C3)cs1 (configuration not stated) , what is its reported Percent Effect?
Data returned: 8.939%

Data request: Given the compound CCNC(=O)[C@@H]1CCCN1[C@@H](C(=O)NC)C1CC1.Cl , what is its reported Percent Effect?
Data returned: 7.785%

Data request: For CN(Cc1nccn1CC(F)(F)F)C(=O)c1ccc2c(c1)OCO2 , what is its reported Percent Effect?
Data returned: 110.7%

Data request: Request the reported Percent Effect associated with CN(C)CCN1CCN(C)C2(CCN(c3nccs3)CC2)C1=O
Data returned: -6.968%
